Reported ABSOLUTE EOSINOPHIL values for a set of compounds
Organism: Rattus norvegicus
assay info: DrugMatrix - Regimen: Daily Repeat
Assay type: toxicity, organism-based, Sprague-Dawley
Parameters: regimen Daily Repeat, gender Male, age 6-8 weeks
experimental parameters: in vivo, po, 2000 mg/kg, 72 h, tissue Blood, route oral GAVAGE, dose level High, time 3 day, vehicle .5 % CMC
Respond with the bare value in CELLS/uL.

Worked cases, ABSOLUTE EOSINOPHIL given:
INSERT INTO results (compound, quantity_unit, meas_value) VALUES
  ('COc1cc2nc(N3CCN(C(=O)c4ccco4)CC3)nc(N)c2cc1OC', 'CELLS/uL', 93.33),
  ('CN/C(=N/CCSCc1nc[nH]c1C)NC#N', 'CELLS/uL', 50),
  ('O=C1Nc2ccc(Cl)cc2C(c2ccccc2Cl)=NC1O (centres undefined)', 'CELLS/uL', 93.33);

In the following, a different compound is considered.
[in] Using the record for CC1(C)S[C@@H]2[C@H](NC(=O)[C@H](N)c3ccccc3)C(=O)N2[C@H]1C(=O)O , report its ABSOLUTE EOSINOPHIL.
[out] 156

---

Organism: Rattus norvegicus
assay info: DrugMatrix - Regimen: Daily Repeat
Assay type: toxicity, organism-based, Sprague-Dawley
Set-up: regimen Daily Repeat, gender Male, age 6-8 weeks
experimental parameters: in vivo, sc, 0 mg/kg, 72 h, tissue Plasma, route subcutaneous, dose level Control, time 3 day, […]
List of ASPARTATE AMINOTRANSFERASE values.

INSERT INTO assay_data (compound, meas_value) VALUES
  ('CCN(CC)CCOCCC1=CCC2CC1C2(C)C (stereo not given)', '93.83 u/L');

[in] Which ASPARTATE AMINOTRANSFERASE value belongs to Oc1c(Cl)cc(Cl)c(Cl)c1Cc1c(O)c(Cl)cc(Cl)c1Cl ?
[out] 90 u/L

[in] Suppose we examine the compound O=C(Nc1ccc(Br)cc1)c1cc(Br)cc(Br)c1O ; what ASPARTATE AMINOTRANSFERASE value has been reported?
[out] 85.5 u/L

[in] Can you share its ASPARTATE AMINOTRANSFERASE? I mean this compound: CC(C)(C)CC(C)(C)c1ccc(OCCOCC[N+](C)(C)Cc2ccccc2)cc1.[Cl-] [BENZETHONIUM CHLORIDE]
[out] 90 u/L

[in] What does the data say about its ASPARTATE AMINOTRANSFERASE? Entry: CCC(=O)O[C@]1(C(=O)CCl)[C@@H](C)C[C@H]2[C@@H]3CCC4=CC(=O)C=C[C@]4(C)[C@@]3(F)[C@@H](O)C[C@@]21C [CLOBETASOL PROPIONATE]
[out] 85.5 u/L

---

Species on record: Rattus norvegicus
assay info: DrugMatrix - Regimen: Daily Repeat
Type: toxicity, organism-based, Sprague-Dawley
Design: regimen Daily Repeat, gender Male, age 6-8 weeks
experimental parameters: in vivo, po, 50 mg/kg, 72 h, tissue Blood, route oral GAVAGE, dose level Low, time 3 day, vehicle .5 % CMC
Catalogue of HEMOGLOBIN readings, one per entry.
Numeric only. Scale: G/DL

INSERT INTO results (compound, quantity_unit, meas_value) VALUES
  ('Cc1cccc(C)c1OCC(C)N (centres undefined) [MEXILETINE]', 'G/DL', 13.2);

[in] What HEMOGLOBIN value was documented for this compound, CN(C)[C@@H]1C(O)=C(C(N)=O)C(=O)[C@@]2(O)C(O)=C3C(=O)c4c(O)ccc(Cl)c4[C@@](C)(O)[C@H]3C[C@@H]12 [CHLORTETRACYCLINE] ?
[out] 13.47

[in] Item under review: CCN1CCC[C@H]1CNC(=O)c1cc(S(N)(=O)=O)ccc1OC [LEVOSULPIRIDE] . Reported HEMOGLOBIN?
[out] 13.77

[in] Given NC1CCN(c2nc3c(cc2F)c(=O)c(C(=O)O)cn3-c2ccc(F)cc2F)C1 (centres undefined) [TOSUFLOXACIN] , state its recorded HEMOGLOBIN.
[out] 14.2

---

# CHLORIDE values compiled below
Organism: Rattus norvegicus
assay info: DrugMatrix - Regimen: Daily Repeat
Assay type: toxicity, organism-based, Sprague-Dawley
Design: regimen Daily Repeat, gender Male, age 6-8 weeks
experimental parameters: in vivo, po, 1500 mg/kg, 72 h, tissue Plasma, route oral GAVAGE, dose level High, time 3 day, vehicle .5 % CMC
Write the value in MEQ/L as a bare number.

INSERT INTO assay_data (compound, measurement_kind, meas_value) VALUES
  ('O=c1cnn([C@@H]2O[C@H](CO)[C@@H](O)[C@H]2O)c(=O)[nH]1', 'CHLORIDE', 104.33),
  ('CN(C)[C@@H]1C(O)=C(C(N)=O)C(=O)[C@@]2(O)C(O)=C3C(=O)c4c(O)ccc(Cl)c4[C@@](C)(O)[C@H]3C[C@@H]12', 'CHLORIDE', 104.33),
  ('COC(=O)Nc1nc2ccc([S+]([O-])c3ccccc3)cc2[nH]1 (stereo not given)', 'CHLORIDE', 100.33);

[in] What CHLORIDE value was documented for this compound, CC(C)Oc1ccc2c(=O)c(-c3ccccc3)coc2c1 ?
[out] 101

[in] I am curious: what CHLORIDE value has been reported for CC(C)=CCC/C(C)=C/CO ?
[out] 100.67

---

Species: Rattus norvegicus
assay info: DrugMatrix - Regimen: Daily Repeat
Type: toxicity, organism-based, Sprague-Dawley
Set-up: regimen Daily Repeat, gender Male, age 6-8 weeks
experimental parameters: in vivo, po, 50 mg/kg, 120 h, tissue Blood, route oral GAVAGE, dose level Low, time 5 day, vehicle .5 % CMC
measurement kind: MEAN CORPUSCULAR HEMOGLOBIN (pg)
All answers are understood in pg, so give the number only.

INSERT INTO measurements (molecule, meas_value) VALUES
  ('CN(C)[C@@H]1C(O)=C(C(N)=O)C(=O)[C@@]2(O)C(O)=C3C(=O)c4c(O)ccc(Cl)c4[C@@](C)(O)[C@H]3C[C@@H]12', 24.33),
  ('CCN1CCC[C@H]1CNC(=O)c1cc(S(N)(=O)=O)ccc1OC [LEVOSULPIRIDE]', 23.03),
  ('NC1CCN(c2nc3c(cc2F)c(=O)c(C(=O)O)cn3-c2ccc(F)cc2F)C1 (centres undefined)', 21);

Turning now to a further molecule:
[in] Entry Cc1cccc(C)c1OCC(C)N (centres undefined) : reported MEAN CORPUSCULAR HEMOGLOBIN = ?
[out] 23.97

---

Species on record: Rattus norvegicus
assay info: DrugMatrix - Regimen: Daily Repeat
Type: toxicity, organism-based, Sprague-Dawley
Design: regimen Daily Repeat, gender Male, age 6-8 weeks
experimental parameters: in vivo, po, 0 mg/kg, 120 h, tissue Plasma, route oral GAVAGE, dose level Control, time 5 day, vehicle .5 % CMC
Please note: ALBUMIN exactly at 4 G/DL is NOT MET. Only values below 4 G/DL get MET.

INSERT INTO results (molecule, group_label) VALUES
  ('CCN(CC)CCOc1ccc(/C(=C(/Cl)c2ccccc2)c2ccccc2)cc1', 'NOT MET'),
  ('O=C1CN=C(c2ccccc2Cl)c2cc([N+](=O)[O-])ccc2N1', 'NOT MET'),
  ('COc1cc2nc(N3CCN(C(=O)c4ccco4)CC3)nc(N)c2cc1OC', 'NOT MET');

[in] Lab log: compare recorded ALBUMIN with 4 G/DL; is it strictly lower for O=C1C(CC[S+]([O-])c2ccccc2)C(=O)N(c2ccccc2)N1c1ccccc1 (centres undefined) ?
[out] NOT MET

[in] Hello, is ALBUMIN of the following molecule strictly smaller than 4 G/DL? NC1CCN(c2nc3c(cc2F)c(=O)c(C(=O)O)cn3-c2ccc(F)cc2F)C1 (centres undefined)
[out] MET

[in] Quick check: does CN(C/C=C/C#CC(C)(C)C)Cc1cccc2ccccc12 have ALBUMIN under 4 G/DL?
[out] MET

[in] Please indicate whether the reported ALBUMIN of Cn1c(=O)c2c(ncn2CC(O)CO)n(C)c1=O (centres undefined) is strictly below 4 G/DL.
[out] NOT MET

[in] In plain terms, does CN/C(=N/CCSCc1nc[nH]c1C)NC#N come in under 4 G/DL for ALBUMIN?
[out] NOT MET

---

As shown below, each of these compounds has a reported ALBUMIN value.
Species: Rattus norvegicus
assay info: DrugMatrix - Regimen: Daily Repeat
Assay type: toxicity, organism-based, Sprague-Dawley
Set-up: regimen Daily Repeat, gender Male, age 6-8 weeks
experimental parameters: in vivo, po, 1500 mg/kg, 72 h, tissue Plasma, route oral GAVAGE, dose level High, time 3 day, vehicle .5 % CMC
Value expressed in G/DL; do not type the unit.

INSERT INTO measurements (compound, measurement_kind, meas_value) VALUES
  ('CN(C)[C@@H]1C(O)=C(C(N)=O)C(=O)[C@@]2(O)C(O)=C3C(=O)c4c(O)ccc(Cl)c4[C@@](C)(O)[C@H]3C[C@@H]12', 'ALBUMIN', 4.27),
  ('O=c1cnn([C@@H]2O[C@H](CO)[C@@H](O)[C@H]2O)c(=O)[nH]1', 'ALBUMIN', 4.3),
  ('COC(=O)Nc1nc2ccc([S+]([O-])c3ccccc3)cc2[nH]1 (stereo not given)', 'ALBUMIN', 4),
  ('CC(C)=CCC/C(C)=C/CO', 'ALBUMIN', 4.4);

Okay, now this compound:
[in] Value lookup for ALBUMIN; key = CC(C)Oc1ccc2c(=O)c(-c3ccccc3)coc2c1
[out] 4.3
